assay: AUC (0 to infinity) in CD-1 mouse at 10 mg/kg, po via gavage administered as single dose; assay type: ADME, organism-based; design: dose 10 mg/kg, route oral, time infinity; settings: in vivo
Measured AUC(0-inf) values are reported for all entries that follow.
Please give a number only; it is taken to be in ng·h/mL.

compound | AUC(0-inf) (ng·h/mL)
COc1cc([C@](O)(CCN(C)C)[C@@H](c2cc3cc(Br)ccc3nc2OC)c2ccnc(OC)c2OC)cc(OC(C)C)n1 (racemic) | 5600

Form field: reported AUC(0-inf) of CCSc1cc([C@](O)(CCN(C)C)[C@@H](c2cc3cc(C#N)ccc3nc2OC)c2cccc(OC)c2F)cc(SCC)n1 (racemic)
1400

Would you kindly repeat that for COc1cc([C@](O)(CCN(C)C)[C@@H](c2cc3cc(Br)ccc3nc2OC)c2cccc(OC)c2F)cc(OC(C)C)n1 (racemic) ?
9000

Try this compound too: COc1cc([C@](O)(CCN(C)C)[C@@H](c2cc3cc(Br)ccc3nc2OC)c2cccc(OC)c2F)cc(OC(F)F)n1 (racemic)
14400

----------
test: Oral bioavailability in CD-1 mouse at 10 mg/kg administered via gavage as single dose; format: ADME, organism-based; conditions: in vivo
recorded.metric: bioavailability (%)
Number only, in %; omit the unit.

Observe how each entry below is paired with its result.
molecule | val
CCOc1cc([C@](O)(CCN(C)C)[C@H](c2cccc(C)c2)c2cc3cc(Br)ccc3nc2OC)cc(OC)n1 (racemic) | 65
CCSc1cc([C@](O)(CCN(C)C)[C@@H](c2cc3cc(C#N)ccc3nc2OC)c2cccc(OC)c2F)cc(SCC)n1 (racemic) | 24
COc1cc([C@](O)(CCN(C)C)[C@@H](c2cc3cc(Br)ccc3nc2OC)c2ccnc(OC)c2OC)cc(OC(F)F)n1 (racemic) | 50

Item COc1cccc([C@H](c2cc3cc(C#N)ccc3nc2OC)[C@@](O)(CCN(C)C)c2cc(SC)nc(SC)c2)c1F (racemic) has what recorded bioavailability?
28

Please give the result for CCSc1cc([C@](O)(CCN(C)C)[C@@H](c2cc3cc(C#N)ccc3nc2OC)c2cccc(C)c2F)cc(SCC)n1 (racemic) too.
22

Query CCCOc1cc([C@](O)(CCN(C)C)[C@@H](c2cc3cc(Br)ccc3nc2OC)c2ccnc(OC)c2OC)cc(OC)n1 (racemic) next
50

Then this molecule: COc1cccc([C@H](c2cc3cc(Br)ccc3nc2OC)[C@@](O)(CCN(C)C)c2cc(SC)nc(SC)c2)c1F (racemic)
66

----------
molecular target: UniProtKB Q12809; assay: Inhibition of human ERG at 10 uM relative to control
Sequence (Q12809 whole entry): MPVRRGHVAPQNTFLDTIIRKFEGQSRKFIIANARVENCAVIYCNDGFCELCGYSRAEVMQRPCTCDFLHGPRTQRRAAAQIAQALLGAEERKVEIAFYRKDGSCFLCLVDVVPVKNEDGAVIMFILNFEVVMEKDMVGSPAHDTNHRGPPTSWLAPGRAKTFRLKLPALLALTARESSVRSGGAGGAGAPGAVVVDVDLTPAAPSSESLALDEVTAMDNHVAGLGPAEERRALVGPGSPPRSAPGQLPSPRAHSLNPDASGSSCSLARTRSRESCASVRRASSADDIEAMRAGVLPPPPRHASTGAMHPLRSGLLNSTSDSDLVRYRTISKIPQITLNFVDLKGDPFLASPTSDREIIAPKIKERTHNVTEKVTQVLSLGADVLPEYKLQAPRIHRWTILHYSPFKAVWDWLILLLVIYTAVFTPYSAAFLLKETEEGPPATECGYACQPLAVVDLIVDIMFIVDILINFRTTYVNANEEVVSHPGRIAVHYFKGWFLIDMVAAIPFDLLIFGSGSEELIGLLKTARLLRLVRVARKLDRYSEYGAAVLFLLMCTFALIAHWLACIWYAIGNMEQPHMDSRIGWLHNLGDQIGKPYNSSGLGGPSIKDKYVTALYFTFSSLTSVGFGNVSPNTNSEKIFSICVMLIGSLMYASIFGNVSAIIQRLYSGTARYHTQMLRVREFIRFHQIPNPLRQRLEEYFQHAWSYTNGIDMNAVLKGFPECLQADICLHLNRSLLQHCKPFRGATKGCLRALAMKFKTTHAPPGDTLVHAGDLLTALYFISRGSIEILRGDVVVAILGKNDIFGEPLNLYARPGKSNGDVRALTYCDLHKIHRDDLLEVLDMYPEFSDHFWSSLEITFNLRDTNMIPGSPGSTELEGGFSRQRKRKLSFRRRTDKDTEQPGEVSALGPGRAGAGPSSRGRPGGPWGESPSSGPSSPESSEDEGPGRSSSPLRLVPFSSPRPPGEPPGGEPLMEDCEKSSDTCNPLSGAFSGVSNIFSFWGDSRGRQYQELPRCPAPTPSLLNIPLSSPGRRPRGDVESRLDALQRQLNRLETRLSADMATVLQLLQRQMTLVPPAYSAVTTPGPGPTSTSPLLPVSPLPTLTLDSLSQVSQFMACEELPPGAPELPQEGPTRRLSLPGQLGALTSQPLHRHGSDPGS
recorded.metric: inhibition at 10 µM (%)
Supply the numeric figure in %, leaving out any unit text.

Please look up its inhibition at 10 µM: COc1cc([C@](O)(CCN(C)C)[C@@H](c2cc3cc(Br)ccc3nc2OC)c2cccc(C)c2F)cc(OC(F)F)n1 (racemic)
3

----------
assay: Intrinsic clearance in human liver microsomes assessed per mg protein; format: ADME, Microsome; details: read-out: CLH
Label condition met when microsomal CLint is strictly below 8 µL/min/mg; otherwise label condition not met.

compound | label
COc1nc2ccc(C#N)cc2cc1[C@@H](c1cccc(C)c1F)[C@@](O)(CCN(C)C)c1cc(SC)nc(SC)c1 (racemic) | condition not met
COc1cc([C@](O)(CCN(C)C)[C@@H](c2cc3cc(C#N)ccc3nc2OC)c2ccnc(OC)c2OC)cc(N(C)C)n1 (racemic) | condition not met
CCSc1cc([C@](O)(CCN(C)C)[C@@H](c2cc3cc(C#N)ccc3nc2OC)c2cccc(OC)c2F)cc(SCC)n1 (racemic) | condition not met
COc1cc([C@](O)(CCN(C)C)[C@@H](c2cc3cc(C#N)ccc3nc2OC)c2cccc(OC)c2F)cc(SC)n1 (racemic) | condition not met
CCSc1cc([C@](O)(CCN(C)C)[C@@H](c2cc3cc(Br)ccc3nc2OC)c2cccc(OC)c2F)cc(SCC)n1 (racemic) | condition met
CCOc1cc([C@](O)(CCN(C)C)[C@@H](c2cc3cc(Br)ccc3nc2OC)c2cccc(OC)c2F)cc(OC)n1 (racemic) | condition met

Determine if COc1cc([C@](O)(CCN(C)C)[C@@H](c2cc3cc(Br)ccc3nc2OC)c2cccc(OC)c2F)cc(OC(C)C)n1 (racemic) shows microsomal CLint strictly lower than 8 µL/min/mg.
condition met

Same again, this time with COc1cc([C@](O)(CCN(C)C)[C@@H](c2cc3cc(Br)ccc3nc2OC)c2cccc(OC)c2F)cc(OC(F)F)n1 (racemic)
condition met

Next entry: CCOc1cc([C@](O)(CCN(C)C)[C@@H](c2cc3cc(Br)ccc3nc2OC)c2ccnc(OC)c2OC)cc(OC)n1 (racemic)
condition met

Values were extracted from ChEMBL document CHEMBL4610003.
